From: PubChem BioAssay AID250

Tested on: BDF1 mice, L1210 leukemia sc, survival T/C
assay_remarks: NCI In Vivo Anticancer Drug Screen. Data for tumor model L1210 Leukemia (subcutaneous) in B6D2F1 (BDF1) mice
run_parameters: endpoint: median survival time; dose: 500.0 mg/kg/injection; schedule: Q01DX Z (sc); vehicle: water; higher = longer survival
Protocol: The antitumor activity of compounds was measured in mice bearing transplantable tumors. Survival or tumor size were measured and the results are expressed as the measurement made in the treated group (T) divided by the measurement made in the vehicle treated control group (C). The tumor model used in this assay is L1210 Leukemia (subcutaneous) in B6D2F1 (BDF1) mice
Inconclusive results and toxic doses are left out.
recorded_metric: T/C

Answered examples (3):
1. CCOC(=O)CCC(NC(=O)N(CCCl)CCCl)C(=O)OCC (centres undefined) :: 112 % of control
2. CCOC(C)C(=O)C=O (centres undefined) :: 105 % of control
3. COc1ccc(/C=N/NC(N)=S)cc1 :: 100 % of control

Shift focus to the following entry.
I looked up O=C(NC(CO)C(=O)O)C(Cl)Cl (centres undefined) and its T/C for BDF1 mice, L1210 leukemia sc, survival T/C was 100 % of control
